B1: library; a variant is named by its letters at N, in order (parent)
chain: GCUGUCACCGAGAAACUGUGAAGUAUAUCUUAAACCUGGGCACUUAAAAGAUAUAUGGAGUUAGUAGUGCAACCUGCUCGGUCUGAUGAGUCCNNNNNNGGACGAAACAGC

- Variants of: B1
- Experiment Notes: FACS-Seq fitted mean relative fluorescence mCherry/BFP without ligand (log10 relative fluorescence); HEK293T; ligand: cyclic di-GMP (c-di-GMP-II aptamer); higher = higher reporter protein expression
- Study Conditions: ligand present: no
Items are presented alongside their recorded FACS-Seq fitted mean (log10).
Lab note: jot down the number only; don't add units.

## Input Which FACS-Seq fitted mean (log10) is reported for this variant? `UACUAU`
## Output -0.131

## Input Would you mind doing `CAGCUU` as well?
## Output -0.396

## Input And what about the variant `GCAUCU` ?
## Output -1.08

## Input Also check `UCGGAG`
## Output -0.311

## Input // next record `GCGUGU`
## Output -0.15

## Input `UAUAAA` , same question.
## Output -0.114
